Test system: HeLa cells (cervix)
Assay: MTT viability assay HeLa
Format: cell-based, human
Condition context: Homo sapiens, HeLa, 72 h
Here, each record is paired with measured IC50 data.

Prompt: Please list IC50 recorded for the compound N=C(N)N/N=C/c1ccc2ccc3ccc(/C=N/NC(=N)N)nc3c2n1
Completion: 16.2 µM

Prompt: Name the recorded IC50 of the compound listed here: C[n+]1cc(NC(=O)c2ccc3ccc4ccc(C(=O)Nc5cc6ccccc6[n+](C)c5)nc4c3n2)cc2ccccc21
Completion: > 100 µM

Prompt: Please look at this compound and report its IC50: C(=N\Nc1nc(-c2ccccc2)cs1)/c1ccc2ccc3ccc(/C=N/Nc4nc(-c5ccccc5)cs4)nc3c2n1
Completion: > 100 µM

----------
Tested on: MCF-7 cells (breast)
Assay: MTT viability assay MCF-7
Assay type: cell-based, human
Condition context: 72 h
Observed property: IC50 (µM)
Unit µM implied. Number only.

Prompt: Give IC50 for the following molecule: N.N.[Cl][Pt][Cl] [cisplatin]
Completion: 96.5

----------
Tested on: HT29 cells (colorectal)
Assay: MTT viability assay HT29
Type: cell-based, human
Condition context: Homo sapiens, HT-29, 72 h
Observed property: IC50

Prompt: Write IC50 of C(=N\Nc1nc(-c2ccccc2)cs1)/c1ccc2ccc3ccc(/C=N/Nc4nc(-c5ccccc5)cs4)nc3c2n1 [compound 4] ; system used: HT29 cells (colorectal)
Completion: > 100 µM
